Source of measurements: the supplement of paper PMC10307832

test system: HCC-15; assay: relative viability (nuclei count vs DMSO), 5 days (fraction); higher = more cells survive; details: first compound 0.08 µM
quantityName: relative viability
Please respond with just the number, no unit label.

input: For the compound Cc1cnc(-c2cnc(NCCNc3ccc(C#N)cn3)nc2-c2ccc(Cl)cc2Cl)[nH]1 + Nc1nc2[nH]cc(CCc3ccc(C(=O)N[C@@H](CCC(=O)O)C(=O)O)cc3)c2c(=O)[nH]1 [Pemetrexed] (partner 0.2 µM) , report relative viability.
output: 0.207

input: For the compound Cc1cnc(-c2cnc(NCCNc3ccc(C#N)cn3)nc2-c2ccc(Cl)cc2Cl)[nH]1 + C[C@]1(O)C[C@@H](c2nc(-c3ccc4ccc(-c5ccccc5)nc4c3)c3c(N)nccn32)C1 [Linsitinib] (partner 1 µM) , report relative viability.
output: 0.897

input: For the compound O=c1[nH]c2ccccc2n1C1CCN(CCCC(c2ccc(F)cc2)c2ccc(F)cc2)CC1 [Pimozide] + C[C@]1(O)C[C@@H](c2nc(-c3ccc4ccc(-c5ccccc5)nc4c3)c3c(N)nccn32)C1 [Linsitinib] (partner 1 µM) , report relative viability.
output: 0.91

input: For the compound O=c1[nH]c2ccccc2n1C1CCN(CCCC(c2ccc(F)cc2)c2ccc(F)cc2)CC1 [Pimozide] + COc1cccc2cc(-c3nc([C@H]4CC[C@H](C(=O)O)CC4)n4ncnc(N)c34)[nH]c12 [OSI-027] (partner 0.5 µM) , report relative viability.
output: 0.817
